biological target: B7-H4 purified monomeric recombinant human protein (Homo sapiens, UniProt Q7Z7D3); experiment: SPR
Sequence (Q7Z7D3 25-259): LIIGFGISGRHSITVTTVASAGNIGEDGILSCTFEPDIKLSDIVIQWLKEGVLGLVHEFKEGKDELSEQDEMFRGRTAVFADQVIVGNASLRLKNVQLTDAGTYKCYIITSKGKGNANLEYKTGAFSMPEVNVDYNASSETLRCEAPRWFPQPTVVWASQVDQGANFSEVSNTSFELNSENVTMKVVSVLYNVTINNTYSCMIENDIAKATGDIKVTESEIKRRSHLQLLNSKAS
Form field: koff (one value per entry).
Return type: number; implicit unit s⁻¹.

See these solved cases before continuing.
B12 (scFv, V domains shown) VH: EVQLVESGGGVVQPGRSLRLSCAASGFTFSDRAMNWVRQAPGKGLEWVSAISGTGASTYYADSVKGRFTISRDNSKNTLYLQMNSLRAEDTAVYYCARKRWYGMDVWGQGTTVTVSS VL: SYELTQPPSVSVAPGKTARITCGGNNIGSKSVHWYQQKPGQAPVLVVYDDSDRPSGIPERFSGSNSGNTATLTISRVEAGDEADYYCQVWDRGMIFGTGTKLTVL
2.8e-05
B04 (scFv, V domains shown) VH: EVQLVESGGGVVQPGRSLRLSCAASGFSFSSRAMNWVRQAPGKGLEWVSAVSGSGSGTYYADSVKGRFTISRDNSKNTLYLQMNSLRAEDTAVYYCARKRWYGMDVWGQGTTVTVSS VL: SYELTQPPSVSVAPGKTARITCGGNNIGLKSVHWYQQKPGQAPVLVVYDDSDRPSGIPERFSGSNSGNTATLTISRVEAGDEADYYCQVWDRGMIFGTGTKLTVL
2.7e-05
A12 (scFv, V domains shown) VH: EVQLVESGGGVVQPGRSLRLSCAASGFTFDNRAMNWVRQAPGKGLEWVSAISSSGSTMYYADSVKGRFTISRDNSKNTLYLQMNSLRAEDTAVYYCARKRWYGMDVWGQGTTVTVSS VL: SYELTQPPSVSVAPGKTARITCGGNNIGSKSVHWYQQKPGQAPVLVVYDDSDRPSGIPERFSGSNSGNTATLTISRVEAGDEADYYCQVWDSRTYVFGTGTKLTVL
3.2e-05
B09 (scFv, V domains shown) VH: EVQLVESGGGVVQPGRSLRLSCAASGFTYSSRAMNWVRQAPGKGLEWVSAISSSGTTTYYADSVKGRFTISRDNSKNTLYLQMNSLRAEDTAVYYCARKRWYGMDVWGQGTTVTVSS VL: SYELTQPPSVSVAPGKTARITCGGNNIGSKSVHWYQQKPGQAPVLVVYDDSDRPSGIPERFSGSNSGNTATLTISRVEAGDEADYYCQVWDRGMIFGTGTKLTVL
2.5e-05

Kindly consider the entry below.
Could you share which koff value was measured for A08 (scFv, V domains shown) VH: EVQLVESGGGVVQPGRSLRLSCAASGFTFGDRAMNWVRQAPGKGLEWVSAISSSGTTSYYADSVKGRFTISRDNSKNTLYLQMNSLRAEDTAVYYCARKRWYGMDVWGQGTTVTVSS VL: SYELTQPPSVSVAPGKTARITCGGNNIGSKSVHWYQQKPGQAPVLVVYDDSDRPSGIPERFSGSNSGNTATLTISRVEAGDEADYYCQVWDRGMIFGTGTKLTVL ?
1.3e-05

The origin of these recorded values is paper PMC9467613.
